Attribution: patent US20250011410A1

- system-name: T1, canine NGF tagged at the C-terminus with the Flag tag (canine, UniProt A0A8I3PYI3 122-241)
- T1 construct: mature; Expressed with baculovirus technology; also called feline NGF (processed form identical)
- T1 sequence (A0A8I3PYI3 entry or part of it): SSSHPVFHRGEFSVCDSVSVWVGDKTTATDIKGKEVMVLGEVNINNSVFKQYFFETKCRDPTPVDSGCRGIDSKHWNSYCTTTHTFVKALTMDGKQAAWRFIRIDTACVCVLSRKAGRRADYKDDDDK
- measurement-protocol: SPR off-rate screen, Fab-SASA on BSA chip
Listing of recorded Kd by entry.
Numbers only here, please. The scale is nM.

>>> result_number("felinized clone 101 Fab-SASA variant S31H (VH) (Fab, V domains shown, not shown: small tags and cut ends) VH: DVQLVESGGDLVKPGGSLRLTCVASGLSLTHSSMSWVRQAPGKGLQWVSTIYSNGGTYYTDSVKGRFTISKDNAENTLYLQMNNLKTEDTATYYCASIYYYDADYLHWYFDFWGQGALVTVSS VL: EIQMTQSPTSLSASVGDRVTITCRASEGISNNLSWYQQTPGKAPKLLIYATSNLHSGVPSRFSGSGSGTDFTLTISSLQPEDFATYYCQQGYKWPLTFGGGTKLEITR")
1.98

With those in mind, consider the next binder.
Assign Kd to the following record: felinized clone 101 Fab-SASA variant K64D (VH) (Fab, V domains shown, not shown: small tags and cut ends) VH: DVQLVESGGDLVKPGGSLRLTCVASGLSLTSSSMSWVRQAPGKGLQWVSTIYSNGGTYYTDSVDGRFTISKDNAENTLYLQMNNLKTEDTATYYCASIYYYDADYLHWYFDFWGQGALVTVSS VL: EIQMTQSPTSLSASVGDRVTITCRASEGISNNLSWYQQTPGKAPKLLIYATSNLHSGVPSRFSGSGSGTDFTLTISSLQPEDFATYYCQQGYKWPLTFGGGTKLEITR
1.63
